System: Bcap37
Experiment: Growth inhibition of human Bcap37 cells at 10 uM after 72 hrs by MTT assay relative to control
Assay type: functional
Details: Homo sapiens, Bcap37, 72 h; read-out: GI
Decision: inhibition of growth at 10 µM compared against 30%; not below it gives satisfied, below it gives not satisfied.

# count of solved cases: 5
>>> print(df.to_string())
                                smiles_code    label_class
0     COc1cc2ncnc(Nc3ccc(Br)cc3)c2c(OC)c1OC  not satisfied
1    COc1cc2ncnc(NCCc3cccc(F)c3)c2c(OC)c1OC      satisfied
2  COc1cc2ncnc(Nc3ccccc3[N+](=O)[O-])c2c(OC)c1OC  not satisfied
3     COc1cc2ncnc(Nc3ccc(Cl)cc3)c2c(OC)c1OC  not satisfied
4   COc1cc2ncnc(Nc3cccc(F)c3)c2c(OC)c1OC.Cl  not satisfied

Dear colleague, could you confirm whether `COc1cc2ncnc(Nc3ccc(C)cc3)c2c(OC)c1OC` has inhibition of growth at 10 µM at or above 30%? not satisfied

Could you verify whether the entry `COc1cc(Nc2ncnc3cc(OC)c(OC)c(OC)c23)c(C(=O)O)cc1OC` shows inhibition of growth at 10 µM of no less than 30%? satisfied
